test: Transcellular transport across MDCK cell monolayer; assay type: in vitro ADME, Canine; settings: dog, pH 7.4; MDCK, DL0410 30 μM; read-out: ER
Endpoint name: efflux ratio at 2 h, 30 µM
No unit in the answer, only the number.

Measured efflux ratio at 2 h, 30 µM of O=C(CCN1CCCCC1)c1ccc(-c2ccc(C(=O)CCN3CCCCC3)cc2)cc1 : 1.18

* * *

test: Transcellular transport across Caco-2 cell monolayer; assay type: in vitro ADME; conditions: human, pH 7.4; Caco-2, DL0410 30 μM
Endpoint name: Papp A→B at 2 h, 30 µM (×10⁻⁶ cm/s)
I only need the number, in ×10⁻⁶ cm/s, no unit after it.

Measured Papp A→B at 2 h, 30 µM of O=C(CCN1CCCCC1)c1ccc(-c2ccc(C(=O)CCN3CCCCC3)cc2)cc1 : 0.841

* * *

assay: Transcellular transport across MDCK cell monolayer; assay type: in vitro ADME, Canine; conditions: dog, pH 7.4; MDCK cells, summary value in text; read-out: ER
Endpoint name: efflux ratio at 2 h

Measured efflux ratio at 2 h of O=C(CCN1CCCCC1)c1ccc(-c2ccc(C(=O)CCN3CCCCC3)cc2)cc1 : ~1

* * *

assay: Transcellular transport across Caco-2 cell monolayer; format: in vitro ADME; details: human, pH 7.4; Caco-2, DL0410 30 μM; read-out: ER
Endpoint name: efflux ratio at 2 h, 30 µM

Measured efflux ratio at 2 h, 30 µM of O=C(CCN1CCCCC1)c1ccc(-c2ccc(C(=O)CCN3CCCCC3)cc2)cc1 [DL0410] : 4.1

* * *

assay: Transcellular transport across Caco-2 cell monolayer; assay type: in vitro ADME; conditions: human, pH 7.4; Caco-2, DL0410 100 μM; read-out: ER
Endpoint name: efflux ratio at 2 h, 100 µM

Measured efflux ratio at 2 h, 100 µM of O=C(CCN1CCCCC1)c1ccc(-c2ccc(C(=O)CCN3CCCCC3)cc2)cc1 : 1.86

* * *

test system: P-gp (MDR1); assay: Transcellular transport across MDCK-MDR1 cell monolayer; type: in vitro ADME, Canine; conditions: dog, pH 7.4; MDCK-MDR1, DL0410 10 μM; read-out: ER
Endpoint name: efflux ratio at 2 h, 10 µM
No unit in the answer, only the number.

Measured efflux ratio at 2 h, 10 µM of O=C(CCN1CCCCC1)c1ccc(-c2ccc(C(=O)CCN3CCCCC3)cc2)cc1 : 14.9

* * *

test: Transcellular transport across Caco-2 cell monolayer; type: in vitro ADME; settings: human, pH 7.4; Caco-2, summary value in text (A→B); read-out: apparent permeability (Papp)
Endpoint name: Papp at 2 h

Measured Papp at 2 h of O=C(CCN1CCCCC1)c1ccc(-c2ccc(C(=O)CCN3CCCCC3)cc2)cc1 : ~1 ×10⁻⁶ cm/s

* * *

tested on: P-gp; assay: Transcellular transport across MDCK-MDR1 cell monolayer; format: in vitro ADME, Canine; settings: dog, pH 7.4; MDCK-MDR1, DL0410 10 μM
Endpoint name: Papp A→B at 2 h, 10 µM (×10⁻⁶ cm/s)
I only need the number, in ×10⁻⁶ cm/s, no unit after it.

Measured Papp A→B at 2 h, 10 µM of O=C(CCN1CCCCC1)c1ccc(-c2ccc(C(=O)CCN3CCCCC3)cc2)cc1 [DL0410] : 0.297

* * *

tested on: P-gp; test: Transcellular transport across MDCK-MDR1 cell monolayer; format: in vitro ADME, Canine; details: dog, pH 7.4; MDCK-MDR1, DL0410 10 μM
Endpoint name: Papp B→A at 2 h, 10 µM (×10⁻⁶ cm/s)
I only need the number, in ×10⁻⁶ cm/s, no unit after it.

Measured Papp B→A at 2 h, 10 µM of O=C(CCN1CCCCC1)c1ccc(-c2ccc(C(=O)CCN3CCCCC3)cc2)cc1 [DL0410] : 4.43

* * *

tested on: P-gp; test: Transcellular transport across MDCK-MDR1 cell monolayer; type: in vitro ADME, Canine; conditions: dog, pH 7.4; MDCK-MDR1, DL0410 100 μM; read-out: ER
Endpoint name: efflux ratio at 2 h, 100 µM
No unit in the answer, only the number.

Measured efflux ratio at 2 h, 100 µM of O=C(CCN1CCCCC1)c1ccc(-c2ccc(C(=O)CCN3CCCCC3)cc2)cc1 : 5.41

* * *

assay: Transcellular transport across Caco-2 cell monolayer; assay type: in vitro ADME; details: human; Caco-2 monolayer, integrity control; read-out: apparent permeability (Papp)
Endpoint name: Papp (×10⁻⁶ cm/s)
I only need the number, in ×10⁻⁶ cm/s, no unit after it.

Measured Papp of O=C1OC2(c3ccc(O)cc3Oc3cc(O)ccc32)c2ccccc21 [fluorescein, reference compound] : 1.09

* * *

test system: P-gp; assay: Transcellular transport across MDCK-MDR1 cell monolayer; type: in vitro ADME, Canine; settings: dog, pH 7.4; MDCK-MDR1, DL0410 100 μM
Endpoint name: Papp A→B at 2 h, 100 µM (×10⁻⁶ cm/s)
I only need the number, in ×10⁻⁶ cm/s, no unit after it.

Measured Papp A→B at 2 h, 100 µM of O=C(CCN1CCCCC1)c1ccc(-c2ccc(C(=O)CCN3CCCCC3)cc2)cc1 [DL0410] : 0.321

* * *

assay: Transcellular transport across Caco-2 cell monolayer; format: in vitro ADME; settings: human, pH 7.4; Caco-2, DL0410 10 μM
Endpoint name: Papp A→B at 2 h, 10 µM (×10⁻⁶ cm/s)
I only need the number, in ×10⁻⁶ cm/s, no unit after it.

Measured Papp A→B at 2 h, 10 µM of O=C(CCN1CCCCC1)c1ccc(-c2ccc(C(=O)CCN3CCCCC3)cc2)cc1 : 0.725

* * *

test: Transcellular transport across MDCK-MDR1 cell monolayer; format: in vitro ADME, Canine; settings: dog; MDCK-MDR1 monolayer, integrity control; read-out: permeability value
Endpoint name: Papp
Please give the number followed by its unit.

Measured Papp of O=C1OC2(c3ccc(O)cc3Oc3cc(O)ccc32)c2ccccc21 [fluorescein, reference compound] : 0.571 ×10⁻⁶ cm/s
